Below: a set of entries, each annotated with reported TGI.
System: LOX IMVI melanoma
Assay: NCI tumour cell line growth inhibition, 48 h

Ask: Could you tell me which TGI is on file for O=S1SC(=S)C2C=CC=CC21 (configuration not stated) ?
Reply: > 100 µM

====

Below: a set of entries, each annotated with reported TGI.
Test system: HCC-2998 colon
Test: NCI tumour cell line growth inhibition, 48 h

Previously resolved entries follow.
1) c1ccc2[nH]c(CNc3ccc(C4C[Se]N=N4)cc3)nc2c1 (centres undefined): > 100 µM
2) Cc1cccc(N(CC(=O)O)S(=O)(=O)c2ccccc2)c1: > 100 µM
3) COc1ccc(N2C(=O)C3c4[nH]c5ccccc5c4C4CCCCCCCCCC4C3C2=O)cc1 (centres undefined): > 10 µM
4) CCCCCCCCCCCCCCCCCCOCC(COCCOCC[N+]1(CCCCCC(=O)[O-])CCCC1)Oc1ncccn1 (centres undefined): 17.4 µM
5) Cc1c(C)c(CC(=O)N2CC2)c(C)c(C)c1CC(=O)N1CC1: 25.2 µM

Ask: Could you tell me which TGI is on file for Cc1ccc(NC(=O)/C(Cc2cc(=O)oc3cc(O)ccc23)=N\NC(=O)C[N+](C)(C)C)cc1C ?
Reply: > 100 µM

Ask: Try C=CC(=O)N1C/C(=C\c2ccc(Cl)cc2)C(=O)/C(=C/c2ccc(Cl)cc2)C1 next.
Reply: 0.739 µM

Ask: Try Cc1cc(C)n(C2=NS(=O)(=O)c3ccccc3N2C)n1 next.
Reply: > 100 µM

Ask: Try Cc1cccc(N=Nc2ccc(N=Nc3c(O)ccc4ccccc34)cc2C)c1 next.
Reply: > 100 µM

Ask: Try CC1(C)CC(=O)C(CC2C(=O)c3ccccc3C2=O)C(=O)C1 next.
Reply: > 100 µM

Ask: Try O=C1c2cccc3cccc(c23)C(=O)N1O next.
Reply: > 100 µM
